Where these numbers come from: patent US20230107642A1

molecular target: Cys12 of the KRAS 4B G12C protein (Homo sapiens, UniProt P01116, G12C); construct: This protein contained 188 amino acids in total, including an N-terminal 6-Histidine tag; made in house; host or cells: E. coli BL21; experiment: In vitro covalent adduct formation (CAF) assay, LC-MS intact mass; format: binding; settings: 10 uM compound, 60 min incubation
Would you kindly list % CAF 10 uM @ 60 min for each of these compounds?
One number for each entry, in %.

Solved cases (3 shown):
INSERT INTO results (compound, measurement_name, test_value) VALUES
  ('C=CC(=O)N1[C@H](C)CN(c2nc(=O)n3c4c(c(-c5ccc(F)cc5F)c(C(F)(F)F)cc24)SCC2(CN(CC)C2)C3)C[C@@H]1C', '% CAF 10 uM @ 60 min', 97.2),
  ('C=CC(=O)N1[C@H](C)CN(c2nc(=O)n3c4c(c(-c5cccc6cnn(C)c56)c(C(F)(F)F)cc24)SC[C@@H]3COC)C[C@@H]1C (atropisomer, axis not shown) [Example 1130]', '% CAF 10 uM @ 60 min', 95.6),
  ('C=CC(=O)N1CCN(c2nc(=O)n3c4c(c(-c5cc(Cl)c(F)cc5F)c(C(F)(F)F)cc24)SC[C@@H]3COC)CC1 (atropisomer, axis not shown) [Example 1107]', '% CAF 10 uM @ 60 min', 97);

List reported % CAF 10 uM @ 60 min for each of these compounds:
1. C=CC(=O)N1[C@H](C)CN(c2nc(=O)n3c4c(c(-c5cccc6cnn(C)c56)c(C(F)(F)F)cc24)SCC2(COC2)C3)C[C@@H]1C (atropisomer, axis not shown) [Example 1132]
2. C=CC(=O)N1[C@H](C)CN(c2nc(=O)n3c4c(c(-c5cc(Cl)c(F)cc5F)c(C(F)(F)F)cc24)SCC2(COC2)C3)C[C@@H]1C [Example 1100]
3. C=CC(=O)N1[C@H](C)CN(c2nc(=O)n3c4c(c(-c5cc(Cl)c(F)cc5F)c(C(F)(F)F)cc24)SC[C@H](N2CCOCC2)C3)C[C@@H]1C (atropisomer, axis not shown) [Example 1115]

1. 85.6
2. 88.8
3. 42.5

I would be grateful if you could provide % CAF 10 uM @ 60 min for each of the following entries.
1. C=CC(=O)N1[C@H](C)CN(c2nc(=O)n3c4c(c(-c5cc(Cl)c(F)cc5F)c(C(F)(F)F)cc24)SC[C@@H](N2CCOCC2)C3)C[C@@H]1C (atropisomer, axis not shown) [Example 1136]
2. C=CC(=O)N1[C@H](C)CN(c2nc(=O)n3c4c(c(-c5ccc(F)cc5)c(C(F)(F)F)cc24)SC[C@@H](N2CCOCC2)C3)C[C@@H]1C
3. C=CC(=O)N1C[C@H](C)N(c2nc(=O)n3c4c(c(-c5cc(Cl)c(F)cc5F)c(C(F)(F)F)cc24)SCC2(COC2)C3)C[C@H]1C [Example 1122]
4. C=CC(=O)N1[C@H](C)CN(c2nc(=O)n3c4c(c(-c5cc(Cl)c(F)cc5F)c(C(F)(F)F)cc24)SC[C@@H](N2CCCC2)C3)C[C@@H]1C (atropisomer, axis not shown) [Example 1138]
5. C=CC(=O)N1CCN(c2nc(=O)n3c4c(c(-c5ccc(F)cc5)c(C(F)(F)F)cc24)SCC2(COC2)C3)CC1
6. C=CC(=O)N1[C@H](C)CN(c2nc(=O)n3c4c(c(-c5cc(Cl)c(F)cc5F)c(C(F)(F)F)cc24)SC[C@H](N2CCOCC2)C3)C[C@@H]1C [Example 1105]
7. C=CC(=O)N1C[C@H](C)N(c2nc(=O)n3c4c(c(-c5cccc6cnn(C)c56)c(C(F)(F)F)cc24)SC[C@@H]3COC)C[C@H]1C (atropisomer, axis not shown) [Example 1102]

82.7
76.8
74.3
50.5
98.4
95.6
94.5

The recorded % CAF 10 uM @ 60 min for entry C=CC(=O)N1[C@H](C)CN(c2nc(=O)n3c4c(c(-c5cc(Cl)c(F)cc5F)c(C(F)(F)F)cc24)SC[C@H](N2CCCC2)C3)C[C@@H]1C equals 69

---

target: Cys12 of the KRAS 4B G12C protein (Homo sapiens, UniProt P01116, G12C); construct: This protein contained 188 amino acids in total, including an N-terminal 6-Histidine tag; made in house; host or cells: E. coli BL21; assay: In vitro covalent adduct formation (CAF) assay, LC-MS intact mass; type: binding; details: 10 uM compound, 60 min
Hi there, I'd appreciate the recorded % CAF 10 uM @ 60 min for every entry that follows.
Give bare numbers, in %.

Here's what some known entries look like.
INSERT INTO results (compound, unit, test_value) VALUES
  ('C=CC(=O)N1C[C@H](C)N(c2nc(=O)n3c4c(c(-c5ccc(F)c(Cl)c5)c(C(F)(F)F)cc24)SCC2(COC2)C3)C[C@H]1C', '%', 96),
  ('C=CC(=O)N1[C@H](C)CN(c2nc(=O)n3c4c(c(-c5cc(Cl)c(F)cc5F)c(C(F)(F)F)cc24)SCC(COC)(COC)C3)C[C@@H]1C (atropisomer, axis not shown) [Example 1421]', '%', 91),
  ('C=CC(=O)N1[C@H](C)CN(c2nc(=O)n3c4c(c(-c5ccc(F)c(Cl)c5)c(C(F)(F)F)cc24)SC[C@H](N2CCOCC2)C3)C[C@@H]1C', '%', 85.5),
  ('C=CC(=O)N1[C@H](C)CN(c2nc(=O)n3c4c(c(-c5ccc(F)cc5F)c(C(F)(F)F)cc24)SC[C@@H]3COCOC)C[C@@H]1C (atropisomer, axis not shown) [Example 1320]', '%', 97.4),
  ('C=CC(=O)N1[C@H](C)CN(c2nc(=O)n3c4c(c(-c5ccc(F)cc5F)c(C(F)(F)F)cc24)SC[C@@H]3CC)C[C@@H]1C', '%', 95);

Look at each compound and report its % CAF 10 uM @ 60 min.
1. C=CC(=O)N1C[C@H](C)N(c2nc(=O)n3c4c(c(-c5ccc(F)cc5F)c(C(F)(F)F)cc24)SC[C@@H]3CN2CCC3(CC2)COC3)C[C@H]1C (atropisomer, axis not shown) [Example 1314]
2. C=CC(=O)N1CCN(c2nc(=O)n3c4c(c(-c5ccc(F)cc5F)c(C(F)(F)F)cc24)SC[C@@H]3COCOC)CC1 (atropisomer, axis not shown)
3. C=CC(=O)N1[C@H](C)CN(c2nc(=O)n3c4c(c(-c5cccc6cnn(C)c56)c(C(F)(F)F)cc24)SC[C@@H]3CN2CCN(C3CC3)CC2)C[C@@H]1C (atropisomer, axis not shown) [Example 1411]
4. C=CC(=O)N1[C@@H]2CC[C@H]1CN(c1nc(=O)n3c4c(c(-c5cc(Cl)c(F)cc5F)c(C(F)(F)F)cc14)SC[C@@H]3CN1CCN(CC)CC1)C2
5. [2H]C([2H])=C([2H])C(=O)N1[C@H](C)CN(c2nc(=O)n3c4c(c(-c5ccc(F)cc5)c(C(F)(F)F)cc24)SC[C@@H]3COC)C[C@@H]1C
6. C=CC(=O)N1[C@H](C)CN(c2nc(=O)n3c4c(c(-c5cc(Cl)c(F)cc5F)c(C(F)(F)F)cc24)SC[C@@H]3CN2CCN(C3CC3)CC2)C[C@@H]1C (atropisomer, axis not shown) [Example 1349]

1: 95.8; 2: 92.4; 3: 0; 4: 80.3; 5: 96.8; 6: 86.9

---

target: K-Ras G12C (Homo sapiens, UniProt P01116, G12C); construct: This protein contained 188 amino acids in total, including an N-terminal 6-Histidine tag; made in house; host or cells: E. coli BL21; test: CAF assay (% CAF; method in Example 7, not in this part); type: binding; conditions: 10 uM, 1 h; Table 3
The threshold is 90%. Values of % CAF @ 10 uM, 1h beneath it are tagged YES; values meeting or exceeding it are tagged NO.

These solved cases illustrate the format of a correct answer.
INSERT INTO assay_data (molecule, assigned_class) VALUES
  ('C=CC(=O)N1CCN(c2nc(=O)n3c4c(c(-c5ccc(F)cc5F)c(Cl)cc24)SCC3)C2CS(=O)(=O)CC21 (stereo not drawn)', 'YES'),
  ('C=CC(=O)N1C2CC1CN(c1nc(=O)n3c4c(c(-c5ccc(F)cc5F)c(Cl)cc14)SCC3)C2', 'YES'),
  ('C=CC(=O)N1CCN(c2nc(=O)n3c4c(c(-c5cccc(F)c5F)c(Cl)cc24)SCC3)[C@@H](C)C1', 'NO'),
  ('C[C@H]1CN(C(=O)/C=C/C(F)(F)F)CCN1c1nc(=O)n2c3c(c(-c4ccc(F)c(Cl)c4)c(Cl)cc13)SCC2', 'NO'),
  ('C=CC(=O)N1C2CC(=O)CC1CN(c1nc(=O)n3c4c(c(-c5ccc(F)cc5F)c(C(F)(F)F)cc14)SCC3)C2', 'NO'),
  ('C=CC(=O)N1CC2CC(C1)N2c1nc(=O)n2c3c(c(-c4ccc(F)cc4F)c(Cl)cc13)SCC2', 'YES');

Please look at the following molecule next.
Bench note: check whether C=CC(=O)N1C2COCC1CN(c1nc(=O)n3c4c(c(-c5ccc(F)cc5F)c(Cl)cc14)SCC3)C2 shows % CAF @ 10 uM, 1h below 90% NO
